Each recorded value in this set is attributed to ChEMBL document CHEMBL1156187.

assay: Volume of distribution at steady state in dog plasma at 0.05 mg/kg, iv; format: ADME, organism-based, Canis lupus familiaris; set-up: dose 0.05 mg/kg, route intravenous; conditions: read-out: Vdss
result-type: Vd (L/kg)
Quick reminder: number only, in L/kg, skip the unit.

Quote Vd reported for C[C@@H]1CN(C(=O)[C@@H]2CN(C(C)(C)C)C[C@H]2c2ccc(F)cc2F)C[C@H](C)[C@@]1(O)c1ccc(F)cc1.Cl please.
11

====

molecular target: Melanocortin receptor 4 (Homo sapiens); test: Displacement of [125I]-MT-II from human recombinant MC4 receptor expressed in CHO cells by scintillation counting
Sequence (P32245 whole entry): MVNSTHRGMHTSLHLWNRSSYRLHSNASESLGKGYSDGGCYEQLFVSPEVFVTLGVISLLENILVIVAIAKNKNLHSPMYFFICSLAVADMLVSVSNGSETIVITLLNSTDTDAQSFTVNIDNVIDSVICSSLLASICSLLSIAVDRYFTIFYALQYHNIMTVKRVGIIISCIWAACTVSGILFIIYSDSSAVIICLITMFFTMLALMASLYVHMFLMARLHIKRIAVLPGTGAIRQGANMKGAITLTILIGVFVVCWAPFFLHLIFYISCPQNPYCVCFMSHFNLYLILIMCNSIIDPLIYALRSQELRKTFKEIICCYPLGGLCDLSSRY
result-type: Ki (µM)
Quick reminder: number only, in µM, skip the unit.

Consider the reported Ki for these molecules:
C[C@@H]1CN(C(=O)[C@@H]2CN(C)C[C@H]2c2ccc(F)cc2F)C[C@H](C)[C@@]1(O)c1ccccc1 | 1.07
CCN1C[C@@H](C(=O)N2C[C@@H](C)[C@](O)(c3cccc(F)c3)[C@@H](C)C2)[C@H](c2ccc(F)cc2F)C1 | 0.355
C[C@@H]1CN(C(=O)[C@@H]2CN(C(C)(C)C)C[C@H]2c2ccc(F)cc2F)C[C@H](C)[C@@]1(O)c1c(F)cccc1F | 0.099
C[C@@H]1CN(C(=O)[C@H]2CN(c3cccnc3)C[C@@H]2c2ccc(F)cc2F)C[C@H](C)[C@@]1(O)c1ccccc1 | 0.05
C[C@@H]1CN(C(=O)[C@@H]2CN(C(C)(C)C)C[C@H]2c2ccc(F)cc2F)C[C@H](C)[C@@]1(O)c1ccc(F)cc1F | 0.176

Report Ki under test system Melanocortin receptor 4 (Homo sapiens) for C[C@@H]1CN(C(=O)[C@@H]2CNC[C@H]2c2ccc(F)cc2F)C[C@H](C)[C@@]1(O)c1ccccc1 .
0.264

Report Ki under test system Melanocortin receptor 4 (Homo sapiens) for C[C@@H]1CN(C(=O)[C@@H]2CN(C(C)(C)C)C[C@H]2c2ccc(F)cc2F)C[C@H](C)[C@@]1(O)c1ccccc1.Cl .
0.027

Report Ki under test system Melanocortin receptor 4 (Homo sapiens) for C[C@@H]1CN(C(=O)[C@H]2CN(c3cccnn3)C[C@@H]2c2ccc(F)cc2F)C[C@H](C)[C@@]1(O)C1CC1 .
0.172

Report Ki under test system Melanocortin receptor 4 (Homo sapiens) for C[C@@H]1CN(C(=O)[C@H]2CN(C3CCOCC3)C[C@@H]2c2ccc(F)cc2F)C[C@H](C)[C@@]1(O)c1ccccc1 .
0.036

Report Ki under test system Melanocortin receptor 4 (Homo sapiens) for C[C@@H]1CN(C(=O)[C@@H]2CN(C(C)(C)C)C[C@H]2c2ccc(F)cc2F)C[C@H](C)[C@@]1(O)c1ccc(Cl)cc1 .
0.048

Report Ki under test system Melanocortin receptor 4 (Homo sapiens) for CCC[C@@]1(O)[C@H](C)CN(C(=O)[C@@H]2CN(C(C)(C)C)C[C@H]2c2ccc(F)cc2F)C[C@@H]1C .
0.844

Report Ki under test system Melanocortin receptor 4 (Homo sapiens) for C[C@@H]1CN(C(=O)[C@@H]2CN(C(C)(C)C)C[C@H]2c2ccc(F)cc2F)C[C@H](C)[C@@]1(O)c1ccccn1 .
0.35

Report Ki under test system Melanocortin receptor 4 (Homo sapiens) for C[C@@H]1CN(C(=O)[C@H]2CN(c3cccnn3)C[C@@H]2c2ccc(F)cc2F)C[C@H](C)[C@@]1(O)c1ccccc1 .
0.01

Report Ki under test system Melanocortin receptor 4 (Homo sapiens) for C[C@@H]1CN(C(=O)[C@H]2CN(c3cccnn3)C[C@@H]2c2ccc(F)cc2F)C[C@H](C)[C@@]1(O)c1ccccn1 .
0.052

Report Ki under test system Melanocortin receptor 4 (Homo sapiens) for C[C@@H]1CN(C(=O)[C@H]2CN(c3ccncn3)C[C@@H]2c2ccc(F)cc2F)C[C@H](C)[C@@]1(O)c1ccccc1 .
0.064
